- Applied Conditions: PAMPA
Parameter: AMP. Scope: all listed entries.

Smiles Notation	AMP
Oc1cc(Nc2nccc(-c3sc(C4CCNCC4)nc3-c3ccc(F)cc3)n2)ccn1	0.2
CN1CCC(C(=O)Nc2nc(-c3ccc(F)cc3)c(-c3ccnc(Nc4ccc(N5CCNCC5)cc4)n3)s2)CC1	0.1
Fc1ccc(-c2nc(N3CCOCC3)sc2-c2ccnc(Nc3ccc(N4CCNCC4)cc3)n2)cc1	2.8
Cc1cc(Nc2nccc(-c3sc(C4CCNCC4)nc3C3CC3)n2)ccn1	1.8

###

Catalogue of AMP values
- Applied Conditions: Tables 2 and 5

Compound	Result Qualifier	AMP / cm/s
Cc1nnc(Nc2nccc(-c3sc(C4CCNCC4)nc3-c3ccc(F)cc3)n2)s1	=	8e-07
Fc1ccc(-c2nc(C3CCNCC3)oc2-c2ccnc(Nc3ccncn3)n2)cc1 [Compound 28B]	=	1.9e-06
Cc1cc(Nc2nccc(-c3sc(C4CCNCC4)nc3-c3ccc(F)cc3)n2)nn1C	=	2e-06
Fc1ccc(-c2nc(C3CCNCC3)sc2-c2ccnc(Nc3nncs3)n2)cc1	<	1e-07
Fc1ccc(-c2nc(C3CCNCC3)sc2-c2ccnc(Nc3ccccn3)n2)cc1	=	3.3e-06
CN1CCC(c2nc(-c3ccc(F)c(NS(C)(=O)=O)c3)c(-c3ccnc(NCC4CC4)n3)s2)CC1 [Compound 5, reference compound]	=	3.4e-06
Cc1csc(Nc2nccc(-c3sc(C4CCNCC4)nc3-c3ccc(F)cc3)n2)n1	=	1.5e-06
Cc1nccc(Nc2nccc(-c3sc(C4CCNCC4)nc3-c3ccc(F)cc3)n2)n1	=	1.8e-06
Cc1nc(Nc2nccc(-c3sc(C4CCNCC4)nc3-c3ccc(F)cc3)n2)ccc1F	=	3e-06
OC(CNc1nccc(-c2sc(C3CCNCC3)nc2-c2ccc(F)cc2)n1)c1ccncc1 (stereo not shown)	=	1e-07

###

Reported AMP is given for each of the following molecules.
- Applied Conditions: Tables 2 and 5
Parameter Measured: AMP (cm/s)

Smiles Notation	Value Observed
Fc1ccc(-c2nc(C3CCNCC3)sc2-c2ccnc(Nc3cccnn3)n2)cc1	1.9e-06
Fc1ccc(-c2nc(C3CCNCC3)sc2-c2ccnc(Nc3cnccn3)n2)cc1	1.6e-06
Cc1cc(Nc2nccc(-c3sc(C4CCNCC4)nc3-c3ccc(F)cc3)n2)on1	1.2e-06
Cc1cc(Nc2nccc(-c3sc(C4CCNCC4)nc3-c3ccc(F)cc3)n2)ccn1	2.1e-06

###

Some compounds, each annotated with its measured HSA binding.
- Target Of Assay: HSA (Homo sapiens, UniProt P02768)
- Sequence (P02768 25-609): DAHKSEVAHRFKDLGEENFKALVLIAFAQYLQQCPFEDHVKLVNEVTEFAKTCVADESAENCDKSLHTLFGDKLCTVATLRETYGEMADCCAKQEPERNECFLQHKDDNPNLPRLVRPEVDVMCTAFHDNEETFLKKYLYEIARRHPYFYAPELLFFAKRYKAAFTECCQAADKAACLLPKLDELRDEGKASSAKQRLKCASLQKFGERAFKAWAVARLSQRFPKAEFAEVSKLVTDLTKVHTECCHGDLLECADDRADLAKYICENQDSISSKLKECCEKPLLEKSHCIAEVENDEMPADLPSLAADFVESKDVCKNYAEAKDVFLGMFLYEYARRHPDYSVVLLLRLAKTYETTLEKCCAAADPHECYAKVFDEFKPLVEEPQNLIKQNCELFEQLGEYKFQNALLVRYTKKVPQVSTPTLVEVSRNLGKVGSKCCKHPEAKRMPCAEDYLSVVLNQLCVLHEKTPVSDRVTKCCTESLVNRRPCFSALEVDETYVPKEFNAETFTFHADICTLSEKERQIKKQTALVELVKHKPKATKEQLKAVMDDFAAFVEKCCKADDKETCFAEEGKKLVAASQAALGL
- Test Summary: HSA binding (plasma protein binding)
- Assay type: in vitro ADME

Smiles Notation	HSA binding (%)
Fc1ccc(-c2nc(C3CCNCC3)sc2-c2ccnc(N3CCC(CN4CCOCC4)CC3)n2)cc1	93
Cc1csc(Nc2nccc(-c3sc(C4CCNCC4)nc3-c3ccc(F)cc3)n2)n1	96
Cc1nc(Nc2nccc(-c3sc(C4CCNCC4)nc3-c3ccc(F)cc3)n2)cc(C2CCC2)c1F	98

###

- Applied Conditions: PAMPA
In this section, each of the compounds is paired with its reported AMP.
Parameter Measured: AMP

Compound	Parameter Measured	Value Observed
CN1CCN(c2ccc(Nc3nccc(-c4sc(N)nc4-c4ccc(F)cc4)n3)cc2)CC1 [Compound 11]	AMP	2.6
CCOc1nccc(Nc2nccc(-c3sc(C4CCNCC4)nc3-c3ccc(F)cc3)n2)n1 [Compound 30]	AMP	1.7
c1cc(Nc2nccc(-c3sc(C4CCNCC4)nc3C3CC3)n2)ncn1 [Compound 58]	AMP	1.8
O=C(Nc1nc(-c2ccc(F)cc2)c(-c2ccnc(Nc3ccc(N4CCNCC4)cc3)n2)s1)C1CC1 [Compound 15]	AMP	0.2
O=S(=O)(Nc1nc(-c2ccc(F)cc2)c(-c2ccnc(Nc3ccc(N4CCNCC4)cc3)n2)s1)C1CCNCC1 [Compound 18]	AMP	0.3
CCCS(=O)(=O)Nc1nc(-c2ccc(F)cc2)c(-c2ccnc(Nc3ccc(N4CCNCC4)cc3)n2)s1 [Compound 17]	AMP	0.3
COc1cc(Nc2nccc(-c3sc(C4CCNCC4)nc3-c3ccc(F)cc3)n2)cc(C)n1 [Compound 34]	AMP	1.9
Fc1ccc(-c2nc(N3CCCC3)sc2-c2ccnc(Nc3ccc(N4CCNCC4)cc3)n2)cc1 [Compound 10]	AMP	2.7
